assay target: human c-Met on cells (NCI-H441, NCI-H292, U87-MG) (human, UniProt P08581 25-1390)
Sequence (P08581 other isoform, or with tags, fused parts or gaps limits assumed): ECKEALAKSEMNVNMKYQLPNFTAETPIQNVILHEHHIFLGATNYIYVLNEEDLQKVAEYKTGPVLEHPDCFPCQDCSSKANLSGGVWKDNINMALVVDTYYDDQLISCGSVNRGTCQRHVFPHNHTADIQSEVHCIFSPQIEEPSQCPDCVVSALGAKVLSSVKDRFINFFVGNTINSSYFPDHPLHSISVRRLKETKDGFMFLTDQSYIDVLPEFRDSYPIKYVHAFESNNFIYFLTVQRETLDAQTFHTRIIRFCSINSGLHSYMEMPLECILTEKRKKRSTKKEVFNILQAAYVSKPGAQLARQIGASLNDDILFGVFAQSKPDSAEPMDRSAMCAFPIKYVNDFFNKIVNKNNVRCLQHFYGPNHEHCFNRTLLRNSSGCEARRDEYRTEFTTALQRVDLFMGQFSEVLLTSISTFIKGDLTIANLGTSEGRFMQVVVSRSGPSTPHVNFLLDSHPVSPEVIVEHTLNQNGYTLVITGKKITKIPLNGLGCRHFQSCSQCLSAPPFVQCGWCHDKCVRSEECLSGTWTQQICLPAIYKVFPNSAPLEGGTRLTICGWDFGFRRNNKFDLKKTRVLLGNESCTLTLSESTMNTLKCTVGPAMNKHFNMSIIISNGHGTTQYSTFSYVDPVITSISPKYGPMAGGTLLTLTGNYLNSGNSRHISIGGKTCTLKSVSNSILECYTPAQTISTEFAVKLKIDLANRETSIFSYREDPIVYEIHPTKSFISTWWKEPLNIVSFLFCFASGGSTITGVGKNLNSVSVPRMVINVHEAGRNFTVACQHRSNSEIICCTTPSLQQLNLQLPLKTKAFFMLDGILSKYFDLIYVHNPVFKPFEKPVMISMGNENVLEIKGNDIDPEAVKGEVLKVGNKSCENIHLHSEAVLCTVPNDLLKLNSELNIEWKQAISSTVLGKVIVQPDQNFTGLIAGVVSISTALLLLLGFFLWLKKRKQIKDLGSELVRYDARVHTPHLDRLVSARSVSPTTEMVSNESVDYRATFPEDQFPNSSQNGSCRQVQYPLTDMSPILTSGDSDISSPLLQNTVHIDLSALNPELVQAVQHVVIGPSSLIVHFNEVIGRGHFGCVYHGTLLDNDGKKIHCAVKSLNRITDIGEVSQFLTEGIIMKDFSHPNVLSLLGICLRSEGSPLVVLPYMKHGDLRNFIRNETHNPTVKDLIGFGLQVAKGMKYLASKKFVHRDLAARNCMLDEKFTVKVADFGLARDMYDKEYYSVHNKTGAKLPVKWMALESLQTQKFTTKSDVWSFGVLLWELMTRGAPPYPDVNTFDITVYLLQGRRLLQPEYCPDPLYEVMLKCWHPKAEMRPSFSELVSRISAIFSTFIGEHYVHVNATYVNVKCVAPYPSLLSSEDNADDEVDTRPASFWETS
assay: cell-based or functional assay
quantity: pMet inhibition in H441 cells IC50 (nM)

binder	quantity	observed
ECB109 (designed binder, not shown: small tags and cut ends, Bispecific: P54AR4-83v23, (AP)5, P114AR7P95-C5v2) MLPAPKNLVVSEVTEDSARLSWDDPHAFYESFLIQYQESEKVGEAIVLTVPGSERSYDLTGLKPGTEYTVSIYGVHNVYKDTNIRGLPLSAIFTTAPAPAPAPAPLPAPKNLVVSRVTEDSARLSWTAPDAAFDSFWIRYFEFLGSGEAIVLTVPGSERSYDLTGLKPGTEYVVNILSVKGGSISPPLSAIFTT	pMet inhibition in H441 cells IC50	26
